experiment: Toxicity liver stage against HepG2, at 10uM
Assay type: cell-based
Set-up: test concentration 10 uM, cell line HepG2-A16-CD81EGFP
assay-setup: human, HepG2-A16-CD81EGFP cells; read-out: INHIBITION
Listing of recorded cytotoxicity at 10 µM by entry.
Give the number; % is assumed, so skip it.

// worked examples, cytotoxicity at 10 µM included
>>> assay_result("CNc1nc2c(s1)C(=O)CN(C(=O)NCCc1ccccc1)C2")
-7.38
>>> assay_result("COc1cccc(C2=CCN(CCN3CCOC3=O)CC2)c1")
-7.52
>>> assay_result("Cn1nnc2c1C(COCc1ccccn1)CN(Cc1ccoc1)C2 (stereo unspecified)")
5.94
>>> assay_result("c1ccc(-c2nc(CN3CCCC(Cn4cncn4)C3)co2)cc1 (stereo unspecified)")
3.18
>>> assay_result("CCC(CC)NC(=O)c1cccnc1N1CCCC1c1ccccn1 (stereo unspecified)")
10.3
>>> assay_result("CN(C)CC(C)(C)Cn1cnc(-c2ccccc2)c1-c1ccncc1")
4.19
>>> assay_result("O=C(NCCCOC1CCCCC1)C1NCCc2[nH]cnc21 (stereo unspecified)")
4.68
>>> assay_result("CC(C)N(C)[C@@H]1CCN(C(=O)[C@H]2CCCO2)[C@H]1Cc1cnn(C)c1")
0.428
>>> assay_result("N#Cc1ccnc(N2CCN(C(=O)c3ccc4c(c3)CCO4)CC2)c1")
-5.75
>>> assay_result("CCOc1ccccc1C(CC(=O)Nc1ncc(C)s1)NC(C)=O (stereo unspecified)")
-15.3

We now examine a further molecule.
query: What value of measured cytotoxicity at 10 µM is listed for Cc1cnn(C2CCCN(C(=O)c3cc4nc(C)ccc4o3)C2)c1 (stereo unspecified) ?
result: 2.22
